Target: Grb2 SH2 (UniProt P62993)
Sequence (P62993 whole entry, looked up, the tested form may be a part): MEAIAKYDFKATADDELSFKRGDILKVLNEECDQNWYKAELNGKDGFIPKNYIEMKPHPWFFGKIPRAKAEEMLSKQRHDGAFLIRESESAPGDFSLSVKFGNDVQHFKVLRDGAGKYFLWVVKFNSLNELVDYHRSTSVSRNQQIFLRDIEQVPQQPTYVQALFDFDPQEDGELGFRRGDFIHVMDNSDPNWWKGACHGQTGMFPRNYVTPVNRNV
Test: SH2 binding enrichment of the phosphorylated peptide, bacterial display (enrichment ratio); higher = better substrate or ligand; peptides without Tyr show the background;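 note: peptide library displayed on the E. coli surface as eCPX fusions, selected cells deep-sequenced, score is each peptide's frequency after selection divided by its frequency in the input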
SH2 binding enrichment: recorded values
Measurement Name: SH2 binding enrichment

| Seq Text | Target System | Measurement Name | Measured Number |
| --- | --- | --- | --- |
| FIIFIYAMKKK [SLCO1B1_Y645_L643F_YF] | Grb2 SH2 (UniProt P62993) | SH2 binding enrichment | 0.884 |
| MPIPMYDASQA [CARMIL1_Y637] | Grb2 SH2 (UniProt P62993) | SH2 binding enrichment | 0.887 |
| HHTDEYEYDEL [TGM1_Y134] | Grb2 SH2 (UniProt P62993) | SH2 binding enrichment | 0.906 |
